binders and their reported kd var/kd wt
Measured Target: T1, human TGFβ3 (human, UniProt P10600 301-412)
T1 sequence: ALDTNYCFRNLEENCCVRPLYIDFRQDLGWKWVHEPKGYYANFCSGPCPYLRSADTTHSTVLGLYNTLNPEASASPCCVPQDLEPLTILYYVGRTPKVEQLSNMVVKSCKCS
Protocol Details: Biacore off-rate vs wt GC1008, 50 nM

# Binder, kd var/kd wt
records = [
    ("S31E (antibody, V domains shown, GC1008 IgG4 variant) VH: QVQLVQSGAEVKKPGSSVKVSCKASGYTFSENVISWVRQAPGQGLEWMGGVIPIVDIANYAQRFKGRVTITADESTSTTYMELSSLRSEDTAVYYCASTLGLVLDAMDYWGQGTLVTVSS VL: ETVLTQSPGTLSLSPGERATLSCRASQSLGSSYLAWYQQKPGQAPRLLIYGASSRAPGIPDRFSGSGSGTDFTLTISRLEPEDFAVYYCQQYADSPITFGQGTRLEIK", 1.4),
    ("S31V (antibody, V domains shown, GC1008 IgG4 variant) VH: QVQLVQSGAEVKKPGSSVKVSCKASGYTFSVNVISWVRQAPGQGLEWMGGVIPIVDIANYAQRFKGRVTITADESTSTTYMELSSLRSEDTAVYYCASTLGLVLDAMDYWGQGTLVTVSS VL: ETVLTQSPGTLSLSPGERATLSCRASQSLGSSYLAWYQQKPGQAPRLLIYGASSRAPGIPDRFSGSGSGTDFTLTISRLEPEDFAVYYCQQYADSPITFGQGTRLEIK", 1.4),
    ("Y27T (antibody, V domains shown, GC1008 IgG4 variant) VH: QVQLVQSGAEVKKPGSSVKVSCKASGTTFSSNVISWVRQAPGQGLEWMGGVIPIVDIANYAQRFKGRVTITADESTSTTYMELSSLRSEDTAVYYCASTLGLVLDAMDYWGQGTLVTVSS VL: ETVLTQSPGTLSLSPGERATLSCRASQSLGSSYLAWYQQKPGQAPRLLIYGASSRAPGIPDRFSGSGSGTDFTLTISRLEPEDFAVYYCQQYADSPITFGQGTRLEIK", 1.5),
    ("D56Q (antibody, V domains shown, GC1008 IgG4 variant) VH: QVQLVQSGAEVKKPGSSVKVSCKASGYTFSSNVISWVRQAPGQGLEWMGGVIPIVQIANYAQRFKGRVTITADESTSTTYMELSSLRSEDTAVYYCASTLGLVLDAMDYWGQGTLVTVSS VL: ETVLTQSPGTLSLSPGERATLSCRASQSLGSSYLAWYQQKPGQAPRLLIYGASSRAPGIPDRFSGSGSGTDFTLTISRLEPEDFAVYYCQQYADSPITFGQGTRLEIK", 1),
    ("Y27V (antibody, V domains shown, GC1008 IgG4 variant) VH: QVQLVQSGAEVKKPGSSVKVSCKASGVTFSSNVISWVRQAPGQGLEWMGGVIPIVDIANYAQRFKGRVTITADESTSTTYMELSSLRSEDTAVYYCASTLGLVLDAMDYWGQGTLVTVSS VL: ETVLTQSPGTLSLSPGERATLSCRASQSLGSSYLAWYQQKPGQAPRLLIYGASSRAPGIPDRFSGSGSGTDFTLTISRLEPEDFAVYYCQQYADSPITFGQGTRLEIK", 1.5),
]
